# System: gastric acid secretion
# Protocol notes: Inhibition of gastric acid secretion (Total Acid Output) in rats; antisecretory activity
# Type: in vivo, Female Sprague-Dawley rats
# Study conditions: rat; id; 20 mg/kg; read-out: Percent Inhibition at 20 mg/kg id
Measurement kind: inhibition in vivo at 20 mg/kg (%)
Report only the number, with the unit % understood.

Use these answered entries as a reference point.
[[record]]
molecule = "CCCCCCCCCN=CN1CCC(C(c2ccccc2)c2ccccc2)CC1"
target = "gastric acid secretion"
readout_unit = "%"
readout_value = 93

[[record]]
molecule = "CCCCN=CN1CCC(C(c2ccccc2)c2ccccc2)CC1"
target = "gastric acid secretion"
readout_unit = "%"
readout_value = 100

[[record]]
molecule = "Cl.N=CN1CCC(C(c2ccccc2)c2ccccc2)CC1.O [R1=diphenylmethyl; A=H; R2=H; R3=H, hydrochloride hydrate]"
target = "gastric acid secretion"
readout_unit = "%"
readout_value = 100


With those in mind, consider the next molecule.
Request: // map CCC(=N)N1CCC(C(c2ccccc2)c2ccccc2)CC1 to recorded inhibition in vivo at 20 mg/kg (system: gastric acid secretion)
Result: 75

----------
# Tested on: gastric acid secretion
# Protocol notes: Inhibition of gastric acid secretion (Total Acid Output) in rats; antisecretory activity
# Assay type: in vivo, Female Sprague-Dawley rats
# Study conditions: rat; id; 20 mg/kg; read-out: Percent Inhibition at 20 mg/kg id
Counter-ions that a name gives are not always drawn.
Measurement kind: inhibition in vivo at 20 mg/kg (%)
Report only the number, with the unit % understood.

Use these answered entries as a reference point.
[[record]]
compound = "N=CN1CCC(c2ccccc2)CC1"
readout_value = 77

[[record]]
compound = "CCCCCCCCN=CN1CCC(C(c2ccccc2)c2ccc(C)cc2)CC1 (stereo not drawn)"
readout_value = 73

[[record]]
compound = "CCN=CN1CCC(C(c2ccccc2)c2ccccc2)CC1 [R1=diphenylmethyl; A=H; R2=H; R3=ethyl, oxalate hemihydrate]"
readout_value = 100


Request: // map C#CCN=CN1CCC(C(c2ccccc2)c2ccccc2)CC1 to recorded inhibition in vivo at 20 mg/kg (system: gastric acid secretion)
Result: 100

Request: What about CCCCCCCCN=CN1CCCC(C(c2ccccc2)c2ccccc2)C1 (stereo not drawn) ?
Result: 92.2

Request: What about N=CN1CCC(C(c2ccccc2)c2ccc(Cl)cc2)CC1 (stereo not drawn) ?
Result: 100

Request: What about CCCCCCCCN=CN1CCC(C(c2ccccc2)c2ccccc2)CC1.O.O=C(O)/C=C/C(=O)O [R1=diphenylmethyl; A=H; R2=H; R3=n-octyl, Fumarate Hydrate] ?
Result: 64

Request: What about N=CN1CCC(Cc2ccccc2)CC1 ?
Result: 98

Request: What about CCCCCCCCN=CN1CCC(C(c2ccccc2)c2ccc(OC)cc2)CC1 (stereo not drawn) ?
Result: 62

----------
# Tested on: gastric acid secretion
# Protocol notes: Inhibition of gastric acid secretion (Total Acid Output) in rats; antisecretory activity
# Type: in vivo, Female Sprague-Dawley rats
# Study conditions: rat; id; 20 mg/kg; read-out: Percent Inhibition at 20 mg/kg id
# Method: The compounds of the invention are useful for inhibition of gastric acid secretion as measured by the following test. […] The sample of gastric contents collected is drained into a centrifuge tube and centrifuged to pack down the sediment. The volume is read and a 1 ml aliquot of the supernatant is put into a beaker containing 10 ml distilled water and is titrated to pH7 using 0.01 N sodium hydroxide. […]
Measurement kind: inhibition in vivo at 20 mg/kg (%)
Report only the number, with the unit % understood.

Use these answered entries as a reference point.
[[record]]
compound = "CCCCCCCCCCN=CN1CCC(C(c2ccccc2)c2ccccc2)CC1 [R1=diphenylmethyl; A=H; R2=H; R3=n-decyl]"
target = "gastric acid secretion"
measurement_kind = "inhibition in vivo at 20 mg/kg"
readout_value = 79

[[record]]
compound = "C(=NCCc1ccccc1)N1CCC(C(c2ccccc2)c2ccccc2)CC1"
target = "gastric acid secretion"
measurement_kind = "inhibition in vivo at 20 mg/kg"
readout_value = 100

[[record]]
compound = "CCCCCCCCC=CCCCCCCCCN=CN1CCC(C(c2ccccc2)c2ccccc2)CC1"
target = "gastric acid secretion"
measurement_kind = "inhibition in vivo at 20 mg/kg"
readout_value = 78.9

[[record]]
compound = "C(=NC12CC3CC(CC(C3)C1)C2)N1CCC(C(c2ccccc2)c2ccccc2)CC1"
target = "gastric acid secretion"
measurement_kind = "inhibition in vivo at 20 mg/kg"
readout_value = 0

[[record]]
compound = "C(=NCc1ccccc1)N1CCC(C(c2ccccc2)c2ccccc2)CC1 [R1=diphenylmethyl; A=H; R2=H; R3=benzyl]"
target = "gastric acid secretion"
measurement_kind = "inhibition in vivo at 20 mg/kg"
readout_value = 100

[[record]]
compound = "C=CCN=CN1CCC(C(c2ccccc2)c2ccccc2)CC1"
target = "gastric acid secretion"
measurement_kind = "inhibition in vivo at 20 mg/kg"
readout_value = 100


Request: Quick one: inhibition in vivo at 20 mg/kg of CCCCCCCCN=CN1CCC(C2c3ccccc3-c3ccccc32)CC1 [R1=9-fluorenyl; A=H; R2=H; R3=n-octyl] ?
Result: 48

Request: What about N=CN1CCCC(C(c2ccccc2)c2ccccc2)C1 (stereo not drawn) ?
Result: 68

Request: What about CCCCCCCN=CN1CCC(C(c2ccccc2)c2ccccc2)CC1 ?
Result: 72
